- system-tested: T1, human CD40 overexpressed on cells (human, UniProt P25942 21-277)
- T1 construct: Cells transfected with human CD40 cDNA; also called CHO-huCD40 cells; CHO-S cells overexpressing human CD40
- T1 sequence (P25942 21-277 limits assumed): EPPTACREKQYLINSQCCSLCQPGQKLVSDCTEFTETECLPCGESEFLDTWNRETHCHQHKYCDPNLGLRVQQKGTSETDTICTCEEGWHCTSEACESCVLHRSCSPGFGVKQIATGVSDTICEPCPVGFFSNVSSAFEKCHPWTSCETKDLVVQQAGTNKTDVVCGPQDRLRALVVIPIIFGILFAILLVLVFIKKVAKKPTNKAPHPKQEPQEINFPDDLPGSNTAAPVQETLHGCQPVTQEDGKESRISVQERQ
- protocol-text: flow cytometry on CHO-S cells overexpressing human CD40
Note to self: use MET only for EC50 readings below 5 nM; a reading exactly at 5 nM still gets NOT MET.

[
  {
    "binder": "ADI-55140 (antibody, human IgG1, kappa, V domains shown) VH: QVQLVESGGGVVQPGRSLRLSCAASGFTFEKYGMHWVRQAPGKGLEWVAVIHYEGSIKYYADSVKGRFTISRDNSKNTLYLQMNSLRAEDTAVYYCARDTSRGHDIWGQGTMVTVSS VL: EIVLTQSPGTLSLSPGERATLSCRASQSVSYDYLAWYQQKPGQAPRLLIYGASTRANGIPDRFSGSGSGTDFTLTISRLEPEDFAVYYCGEYADYPPFTFGGGTKVEIKR",
    "answer-label": "NOT MET"
  },
  {
    "binder": "ADI-55164 (antibody, human IgG1, kappa, V domains shown) VH: EVQLVESGGGLVQPGRSLRLSCAASGFTFDDYAMHWVRQAPGKGLEWVSGISWSSDSIHYADSVKGRFTISRDNAKNSLYLQMNSLRAEDTAVYYCAKDPTATTGARGYFDLWGRGTLVTVSS VL: DIQMTQSPSSVSASVGDRVTITCRASKVISSWLAWYQQKPGKAPKLLIYAASYLESGVPSRFSGSGSGTDFTLTISSLQPEDFATYYCQQHSSFPPTFGGGTKVEIKR",
    "answer-label": "NOT MET"
  },
  {
    "binder": "ADI-55147 (antibody, human IgG1, kappa, V domains shown) VH: QVQLVESGGGVVQPGRSLRLSCAASGFTFGSYGMHWVRQAPGKGLEWVAVISYEGVKKYYADSVKGRFTISRDNSKNTLYLQMNSLRAEDTAVYYCARDTSRGHDIWGQGTMVTVSS VL: EIVLTQSPGTLSLSPGERATLSCRASQSVSYDYLAWYQQKPGQAPRLLIYGASARANGIPDRFSGSGSGTDFTLTISRLEPEDFAVYYCQQYADYPPFTFGGGTKVEIKR",
    "answer-label": "NOT MET"
  },
  {
    "binder": "ADI-55168 (antibody, human IgG1, kappa, V domains shown) VH: EVQLVESGGGLVQPGRSLRLSCAASGFTFDTYAMHWVRQAPGKGLEWVSGISWSSGSIHYADSVKGRFTISRDNAKNSLYLQMNSLRAEDTAVYYCAKDPTATTGARGYFDLWGRGTLVTVSS VL: DIQMTQSPSSVSASVGDRVTITCEASQVISSWLAWYQQKPGKAPKLLIYAASYLQSGVPSRFSGSGSGTDFTLTISSLQPEDFATYYCQQHSSFPPTFGGGTKVEIKR",
    "answer-label": "MET"
  },
  {
    "binder": "ADI-55142 (antibody, human IgG1, kappa, V domains shown) VH: QVQLVESGGGVVQPGRSLRLSCAASGFTFEKYGMHWVRQAPGKGLEWVAVISYEGEKKYYADSVKGRFTISRDNSKNTLYLQMNSLRAEDTAVYYCARDTSRGHDIWGQGTMVTVSS VL: EIVLTQSPGTLSLSPGERATLSCRASQSVSYSYLAWYQQKPGQAPRLLIYGASSRANGIPDRFSGSGSGTDFTLTISRLEPEDFAVYYCSDYADYPPFTFGGGTKVEIKR",
    "answer-label": "NOT MET"
  }
]

In the following, a different binder is considered.
In the record for ADI-47720 (antibody, human IgG1, kappa, V domains shown) VH: EVQLVESGGGLVQPGRSLRLSCAASGFTFDDYAMHWVRQAPGKGLEWVSGISWSSGSIGYADSVKGRFTISRDNAKNSLYLQMNSLRAEDTAVYYCAKDPTATTGARGYFDLWGRGTLVTVSS VL: DIQMTQSPSSVSASVGDRVTITCRASQGISSWLAWYQQKPGKAPKLLIYAASSLQSGVPSRFSGSGSGTDFTLTISSLQPEDFATYYCQQRASFPPTFGGGTKVEIKR , is EC50 less than 5 nM?
MET
